Reference source: PubChem BioAssay (NCI)

- Tested on: ACHN renal
- method description: NCI-60 one-dose screen, 48 h
- experimental conditions: 10 µM unless noted
The panel holds about 83,000 compounds, 20% with a hit somewhere; the sample as a whole holds those more often. Activity calls are given as the source filed them. How the source made its calls: active means growth percent below 10; inactive means the rest.
Outcome codes: 1 (active), 0 (inactive)

| compound | assayed target | class name |
| --- | --- | --- |
| O=C(CCCCCCNC(=O)c1csc(Br)n1)NO | ACHN renal | 0 |
| CC(=O)OC[C@@]12Oc3c(cccc3-c3ccc(O)c4c3O[C@]3(COC(C)=O)C(=C4O)C(=O)C[C@H](C)[C@@H]3OC(C)=O)C(O)=C1C(=O)C[C@H](C)[C@@H]2OC(C)=O | ACHN renal | 1 |
| O=C(CSc1nc2ccccc2c(=O)n1-c1ccccc1)N/N=C/c1ccc(Oc2ccc(Cl)cc2)cc1 | ACHN renal | 0 |
| CN1CCN(c2ccc(Nc3nc(NCCNS(=O)(=O)c4ccc(Cl)cc4)c4sccc4n3)cc2)CC1 | ACHN renal | 0 |
| Cc1ccc(C)c(NC2=C(Cl)C(=O)c3nc(C)ccc3C2=O)c1 | ACHN renal | 1 |
| COc1cc(NC(=O)Nc2cccc(-c3cc(=O)c4c(OC)c(OC)c(OC)cc4o3)c2)cc(OC)c1OC | ACHN renal | 0 |
| COC(=O)c1cccc(NC2=C(Cl)C(=O)c3nc(C)ccc3C2=O)c1 | ACHN renal | 1 |
| Brc1ccc(-c2cc(-c3ccc4c(c3)OCCO4)n[nH]2)s1 | ACHN renal | 0 |
| COc1ccc(/C(=N\N=C(N)N)c2ccc(Cl)cc2)cc1OC | ACHN renal | 0 |
| Cc1ncn(-c2ccc(/C=N/Nc3ccnc4cc(Cl)ccc34)cc2)c1C | ACHN renal | 1 |
| Cc1[nH]c(C(=O)Nc2ccc(S(=O)(=O)N3CCCCC3)cc2OCCOCCOCCOCCOCCOCCOCCOCCOCCOc2cc(S(=O)(=O)N3CCCCC3)ccc2NC(=O)c2[nH]c(C)c3c2CCCCC3=O)c2c1C(=O)CCCC2 | ACHN renal | 0 |
| CCOP(=O)(OCC)OC[C@]12CC[C@@H](C)[C@H](C)C1C1=CC[C@@H]3[C@@]4(C)CCCNC(C)(C)[C@@H]4CC[C@@]3(C)[C@]1(C)CC2 (some centres not stated) | ACHN renal | 0 |
| Cc1ccc2c(n1)C(=O)C(Cl)=C(Nc1ccc(C#N)cc1)C2=O | ACHN renal | 1 |
| Oc1[nH]c2ccc(Cl)cc2c1N=Nc1nc(N=Nc2c(O)[nH]c3ccc(Cl)cc23)nc(N2CCCCC2)n1 | ACHN renal | 0 |
| O=C(N/N=C\c1ccc(F)cc1)c1ccc2nc(-c3ccc(Br)cc3)[nH]c2c1 | ACHN renal | 0 |
| FC(F)(F)c1cc(Br)cc(-c2cc(-c3ccc4c(c3)OCCO4)[nH]n2)c1 | ACHN renal | 0 |
| CC1=C(C)C(=O)C(Nc2cccc(C(=O)OC(C)(C)C)c2)=C(Cl)C1=O | ACHN renal | 0 |

----------
- Test system: EKVX NSCLC
- method description: NCI-60 one-dose screen, 48 h
- experimental conditions: 10 µM unless noted
This is part of a sample that, as a whole, favours compounds with a hit. Of some 83,000 tested, about 20% had one in any assay. Active and inactive are the calls of the source. Rule for the calls: active = growth percent below 10; inactive = the rest.
Outcome codes: t = active, f = inactive

| compound | class name |
| --- | --- |
| C=C(C)[C@@H]1CC[C@]2(C(=O)N3CCN(C)CC3)CC[C@]3(C)[C@H](CC[C@@H]4[C@@]5(C)CC[C@H](OP(=O)(OCC)OCC)C(C)(C)[C@@H]5CC[C@]43C)[C@@H]12 | f |
| CC(C)=CCC[C@](C)(O)[C@H]1CC[C@]2(C)[C@@H]1CC[C@@H]1[C@@]3(C)CC[C@H](N)C(C)(C)[C@@H]3CC[C@]12C | f |
| CC1(C)CC[C@]2(C(=O)NCCCCCCN(CCCN)CCCN)CC[C@]3(C)C(=CC[C@@H]4[C@@]5(C)CC[C@H](O)C(C)(C)[C@@H]5CC[C@]43C)[C@@H]2C1 | f |
| CN1CCN(Cc2ccc(NC(=O)c3cncc(C#Cc4cnc5ccc(OCC(F)F)nn45)c3)cc2C(F)(F)F)CC1 | t |
| N#Cc1nc(-c2ccc(Cl)cc2)oc1N1CCC(S(=O)(=O)N2CCOCC2)CC1 | f |
| COc1ccc([C@H]2C(=O)N(c3cc(OC)c(OC)c(OC)c3)[C@@H]2c2ccc(OC)c(O)c2)cc1 | f |
| CC[C@]12C=CCN3CC[C@]4(C(=C(C(=O)OC)C1)Nc1cc5c(cc14)[C@@H]1[C@H](O5)[C@@H](O)[C@@]4(CC)CC(C(=O)OC)=C5Nc6cc(O)ccc6[C@@]56CCN1C46)C32 (stereo partly specified) | f |
| Cc1ccc(Nc2nc(SC(C)C)nc(-c3ccccc3)c2C#N)cc1 | f |
| Clc1ccc(CSc2nnc(-c3ccc(Cl)cc3)n2-c2ccccc2)cc1 | f |
| NC1[C@H]2CN(c3cnc(C(=O)Nc4cc(F)cc5cccnc45)cn3)C[C@@H]12 (stereo partly specified) | f |
| COC(=O)CCCNCCCn1ccc2cc(NCc3cccc(-c4ccccc4)c3C)ccc21 | f |
| COc1ccc(-c2c3c(cn2Cc2cccc(OC)c2)-c2oncc2CCC3)cc1 | f |
| CN1CCN(c2ccc(Nc3nc(NCCCNS(=O)(=O)c4ccc(F)cc4)c4sccc4n3)cc2)CC1 | f |
| COc1cccc2c1[C@H](OC)[C@]13O[C@@]1(C2=O)[C@H](O)[C@H](C)[C@@](O)(C(=O)[C@@H]1O[C@H]1C)[C@@H]3O | t |
| O=C(CCCCCCNC(=O)C(O)(O)C(F)(F)F)Nc1nc2ccccc2s1 | f |
| C(=N\Nc1nc(N/N=C/c2ccc3c(c2)OCO3)nc(N2CCCCC2)n1)/c1ccc2c(c1)OCO2 | f |

----------
- System: A549/ATCC NSCLC
- method description: NCI-60 one-dose screen, 48 h (100 = growth as untreated, 0 = no growth, -100 = all killed)
- experimental conditions: 10 µM unless noted
- Protocol: Growth inhibition of the A549/ATCC human Non-Small Cell Lung tumor cell line is measured as a screen for anti-cancer activity. Cells are grown in 96 well plates and exposed to the test compound for 48 hours. Compounds are tested at a single concentration, which is 10^-5 M for most compounds. The reported endpoint is percent growth (GI% or GIPRCNT), where numbers from 0 - 100% represent growth inhibition, and numbers from -100% - 0 represent cell death. […]
Compounds without any hit were thinned out: in the full panel of roughly 83,000, 20% have a hit.
Each entry below carries its recorded growth.

| molecule | growth / % |
| --- | --- |
| C[C@@H]1OCC2(CCN(c3cnc(C(=O)Nc4cc(F)cc5cccnc45)cn3)CC2)[C@@H]1N | 82.2 |
| O=C1C(SCc2ccccc2)=C(Cl)CN1c1ccc(Cl)cc1 | 101 |
| COc1ccc2[nH]cc(-c3nn4cc(-c5ccncc5)nc4s3)c2c1 | 74.6 |
| NC1C2CCC1CN(c1cnc(C(=O)Nc3cc(F)cc4cccnc34)cn1)C2 (stereo not given) | 68.6 |
| O=C(CCCCCCN1CC(=O)N2[C@@H](c3cccs3)c3[nH]c4ccccc4c3C[C@H]2C1=O)NO | 98.9 |

----------
- Test system: OVCAR-4 ovarian
- method description: NCI-60 one-dose screen, 48 h (100 = growth as untreated, 0 = no growth, -100 = all killed)
- experimental conditions: 10 µM unless noted
The panel holds about 83,000 compounds, 20% with a hit somewhere; the sample as a whole holds those more often.

| molecule | assayed target | growth [%] |
| --- | --- | --- |
| Cn1c2nc3ccccc3c-2cc2ccccc21 | OVCAR-4 ovarian | 50 |
| CN1CCN(c2ccc(Nc3nc(NCCNS(=O)(=O)c4ccc5ccccc5c4)c4sccc4n3)cc2)CC1 | OVCAR-4 ovarian | 82.3 |
| CN(C)c1ccc(/C=N/Nc2nc(N/N=C/c3ccc(N(C)C)cc3)nc(N3CCCCC3)n2)cc1 | OVCAR-4 ovarian | 106 |
| Cc1ccc(S(=O)(=O)NCCCNc2nccc(-c3[nH]c(-c4ccccc4)nc3-c3ccc(F)c(O)c3)n2)cc1 | OVCAR-4 ovarian | 107 |
| COc1cccc2c1C=CC1(O2)Oc2cccc(OC)c2C=C1C (stereo not given) | OVCAR-4 ovarian | 85.3 |
| O=C(CSc1cc[n+](CCCCO)c2ccccc12)n1ccc2ccccc21 | OVCAR-4 ovarian | 105 |
| NC1=NC2(CCCC2)N(c2ccc(S(=O)(=O)Nc3nccs3)cc2)C(N)=N1 | OVCAR-4 ovarian | 110 |
| COc1cccc(N2CCN(C3=C(Cl)C(=O)c4ncccc4C3=O)CC2)c1 | OVCAR-4 ovarian | 80.5 |
| CN(C)S(=O)(=O)c1ccc(-c2nc(C(Cl)Cl)nc3cc(-c4ccccc4)nn23)cc1 | OVCAR-4 ovarian | 90.5 |
| CC(C)(C)OC(=O)Nc1ccc(-c2cccc(Oc3ccc4nnc(Cl)n4n3)c2)cc1 | OVCAR-4 ovarian | 63.7 |
| O=C1[C@@H]2Cc3c([nH]c4ccccc34)[C@@H](c3ccc(Cl)cc3)N2C(=O)CN1C1CCN(Cc2c(F)cccc2F)CC1 | OVCAR-4 ovarian | 44.8 |
| NS(=O)(=O)c1ccc(CCn2c(-c3ccc(C(=O)O)cc3)nc(-c3ccccc3)c2-c2ccccc2)cc1 | OVCAR-4 ovarian | 99.4 |
| C#CCn1cc(/C=N/Nc2nc(-c3ccc(Br)cc3)cs2)c2ccccc21 | OVCAR-4 ovarian | 107 |
| CC(C)(C)Nc1nc2c(OCCc3ccccc3)cccn2c1-c1ccc([N+](=O)[O-])cc1 | OVCAR-4 ovarian | 42.3 |
| COC(=O)c1cccc(NC2=CC(=O)C(C)=C(C)C2=O)c1 | OVCAR-4 ovarian | 24.3 |
| O=C(CSc1nnc(-c2ccc(Cl)cc2)n1-c1ccccc1)Nc1cccc(F)c1 | OVCAR-4 ovarian | -46.4 |
| CC(=O)OC[C@]12CC[C@@H](C(=O)/C=C/c3cccnc3)[C@@H]1[C@H]1CC[C@@H]3[C@@]4(C)CC[C@H](OC(C)=O)C(C)(C)[C@@H]4CC[C@@]3(C)[C@]1(C)CC2 | OVCAR-4 ovarian | 21.9 |
| COC(=O)CNC(=O)c1cccc(-c2cc(=O)c3c(OC)c(OC)c(OC)cc3o2)c1 | OVCAR-4 ovarian | 102 |
| COc1ccc(/C(=N\NC(N)=S)c2ccc(Cl)cc2)cc1OC | OVCAR-4 ovarian | 60.6 |
| Cc1cc(=O)oc2cc(OCCCOc3ccc(/C=C/C(=O)Nc4ccc(Br)cc4)cc3)ccc12 | OVCAR-4 ovarian | 105 |
| O=C(Nc1ccccc1)Nc1nc2ccc([N+](=O)[O-])cc2[nH]1 | OVCAR-4 ovarian | 23.5 |
| O=C1Nc2cc(Cl)ccc2/C1=C\c1ccc(OCc2ccccc2)cc1 | OVCAR-4 ovarian | 96.3 |
| Cc1csc(/N=C(N)/N=C(\N)c2cccc(Br)c2)n1 | OVCAR-4 ovarian | 95.5 |
| O=C(CSc1nnc(-c2ccc(Cl)cc2)n1-c1ccccc1)Nc1ccccc1Cl | OVCAR-4 ovarian | 8.39 |
| COc1cc(NC(=O)Nc2cccc(-c3cc(=O)c4c(OC)c(OC)c(OC)cc4o3)c2)cc(OC)c1OC | OVCAR-4 ovarian | 65.5 |
| Cc1ccc2c(n1)C(=O)C(Cl)=C(Nc1ccc(C(F)(F)F)cc1)C2=O | OVCAR-4 ovarian | -96.4 |
| Cc1ccc(OCc2occc2C(=O)N2CCOCC2)cc1 | OVCAR-4 ovarian | 103 |
| CCN(CC)c1ccc(/C=N/NC(=O)c2ccc(S(N)(=O)=O)cc2)c(O)c1 | OVCAR-4 ovarian | 32.6 |
| CC(Nc1ncnc2ccc(-c3cnc4cnccn34)cc12)c1ccccc1 (stereo not given) | OVCAR-4 ovarian | 41.4 |
| Clc1cccc(/C=N/Nc2nc(N/N=C/c3cccc(Cl)c3)nc(N3CCCCC3)n2)c1 | OVCAR-4 ovarian | 90.2 |
| COc1ccc2sc(NC(=O)CCCCCCNC(=O)C(O)(O)C(F)(F)F)nc2c1 | OVCAR-4 ovarian | 27.7 |
| Brc1cccc(-c2cc(-c3ccc4c(c3)OC=CO4)[nH]n2)c1 | OVCAR-4 ovarian | 82.1 |
| CN1CCN(c2ccc(Nc3nc(NCCCNS(=O)(=O)c4ccc(C(F)(F)F)cc4)c4sccc4n3)cc2)CC1 | OVCAR-4 ovarian | -35 |
| OCC(Nc1ncnc2ccc(-c3cnc4cnccn34)cc12)c1ccccc1 (stereo not given) | OVCAR-4 ovarian | 63.7 |
| COc1ccc2c(c1)c(/C=N/Nc1ccnc3cc(Cl)ccc13)cn2C | OVCAR-4 ovarian | -76.7 |
| CCN(CC)CCOc1ccc(C(=C(C)c2ccc(OC)cc2)c2ccc(OCCN(CC)CC)cc2)cc1 | OVCAR-4 ovarian | -24.4 |
| CC[C@]12CC(C(=O)OC)=C3Nc4ccccc4[C@@]34CCN(C14)[C@@H]1c3cc4c(cc3O[C@@H]1[C@H]2O)NC1=C(C(=O)OC)C[C@@]2(CC)C3N(CC[C@@]143)C[C@H]1O[C@H]12 (stereo not given in full) | OVCAR-4 ovarian | 33.2 |
| Oc1[nH]c2ccc(Cl)cc2c1N=Nc1nc(N=Nc2c(O)[nH]c3ccc(Cl)cc23)nc(N2CCCCC2)n1 | OVCAR-4 ovarian | 42.2 |
| COc1cc2c3c(cc4c5c(ccc4c3c1OC)OCO5)N(CCN(C)C)C2=O | OVCAR-4 ovarian | -4.27 |
| Cc1ccc(NC2=C(Cl)C(=O)c3nc(C)ccc3C2=O)c(C)c1 | OVCAR-4 ovarian | -96.5 |
